molecular target: KRas G12D/Q61H double mutant (Homo sapiens (Human), UniProt P01116, G12D/Q61H); experiment: Ras GTP binding domain inhibition assay (labeled GTP); details: 20 μM compound; KRas G12D/Q61H double mutant; read-out: % Inhibition at 20 μM of K-Ras mutant and wild-type protein, KRas G12D Q61H
Sequence (P01116-2 other isoform, or with tags, fused parts or gaps G12D/Q61H): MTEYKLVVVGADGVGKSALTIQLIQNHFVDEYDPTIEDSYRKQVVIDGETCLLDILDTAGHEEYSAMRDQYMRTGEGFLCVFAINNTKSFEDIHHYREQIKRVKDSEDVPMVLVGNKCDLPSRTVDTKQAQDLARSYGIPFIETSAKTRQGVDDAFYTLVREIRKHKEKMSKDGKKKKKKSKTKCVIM
reported.endpoint: inhibition at 20 µM

>>> measurement("NC(=O)C1CCCN1Cc1cccc(NC(=O)c2ccccc2OCCOc2ccccc2)c1 (stereo not drawn)")
"25 to 50%"
>>> measurement("COc1cc(CN(C)C(=O)Cc2ccc(Br)cc2)ccc1OCc1ccccc1")
"1 to 25%"
>>> measurement("CC1CCCN(c2nc(-c3ccc(O)cc3O)cs2)C1 (stereo not drawn)")
"25 to 50%"
>>> measurement("CCOc1ccc(Oc2ccc(C(F)(F)F)cc2NCc2nc(C)no2)cc1")
"51 to 75%"
>>> measurement("Cn1cnc(-c2nc(O)c3c(-c4ccccc4)c(-c4ccc(CNC(=O)OC(C)(C)C)cc4)sc3n2)c1 [drawing 3537]")
"1 to 25%"
>>> measurement("CN(C)S(=O)(=O)c1cccc(CSCCOc2cccc(Cl)c2)c1")
"25 to 50%"
>>> measurement("CCc1ccccc1OCC(=O)N1N=C(c2ccccc2)CC1(O)C(F)(F)F (stereo not drawn)")
"25 to 50%"
>>> measurement("Cc1ccc(C)c(OCc2nnc(SCc3c(C#N)c(C)nn3-c3ccccc3)o2)c1")
"25 to 50%"
>>> measurement("CCOc1ccc(Nc2ccc([N+](=O)[O-])cc2S(=O)(=O)N(CC)CC)cc1")
"25 to 50%"
>>> measurement("Oc1nc(-c2ccccn2)nc(Oc2cccc(C(F)(F)F)c2)c1O [drawing 3558]")
"51 to 75%"
>>> measurement("NCC(=O)NCc1ccc(Oc2ccc(F)c(F)c2)cc1C(F)(F)F")
"1 to 25%"
>>> measurement("CC(C)(COc1ncccc1C(F)(F)F)Nc1nccc(C(F)(F)F)n1")
"25 to 50%"
>>> measurement("O=C(Oc1ccc(Oc2ccccc2)cc1)c1ccccc1-c1ccc(C(F)(F)F)cc1")
"25 to 50%"
>>> measurement("COC(=O)c1c(CN(C)Cc2nccn2CC(F)(F)F)nc2ccccc2c1-c1ccccc1")
"25 to 50%"
>>> measurement("Cc1sc2nc(-c3ccccn3)nc(NCC(=O)N3CCC(O)CC3)c2c1-c1ccccc1")
"25 to 50%"
>>> measurement("COCCCOC1(CSc2nnc(COc3cc(C)ccc3C)o2)CCCC1")
"25 to 50%"
>>> measurement("COc1nc(-c2ccccn2)nc2c(C3CCC3)csc12 [drawing 3480]")
"51 to 75%"
>>> measurement("Nc1nc(O)c2sc(-c3cccc(C(=O)N4CCC(O)C4)c3)cc2n1 (stereo not drawn) [drawing 3543]")
"1 to 25%"
>>> measurement("Cc1ccc(-c2cc3nc(-c4ccccn4)nc(O)c3s2)cc1 [drawing 3555]")
"0%"
>>> measurement("CC(C)(C)c1sc2c(O)nc(-c3ccccn3)nc2c1Br [drawing 3554]")
"25 to 50%"
>>> measurement("O=c1c(Cc2cc(Cl)c3cccnc3c2O)c(O)oc2ccccc12")
"25 to 50%"
>>> measurement("CC(C)Oc1cnc(-c2ccccn2)nc1O [drawing 3481]")
"51 to 75%"
>>> measurement("CC(CC(N)=O)Nc1cc(C(F)(F)F)nc(-c2ccccn2)n1 (stereo not drawn)")
"1 to 25%"
>>> measurement("CCN(C(=O)c1cccc(-n2cccn2)c1)c1ccc(C#N)c(Cl)c1")
"1 to 25%"
>>> measurement("Cc1ccc(OCc2ccc(C(=O)N(CCC#N)CC3CCC3)o2)c(C)c1")
"51 to 75%"
>>> measurement("COc1ccc(-c2cc(NC(=O)C3CC(=O)N(C(C)c4ccccc4)C3)ccc2OC)cc1 (stereo not drawn)")
"1 to 25%"
>>> measurement("COC(=O)c1c(C)sc2nc(-c3ccccn3)nc(N)c12 [drawing 3485]")
"51 to 75%"
>>> measurement("O=C(COc1ccccc1C(=O)c1cnn(-c2ccccc2)c1)NCC1CCCCC1")
"25 to 50%"
>>> measurement("COc1ccc(CN(C)Cc2ccc(OC)c(SC(F)(F)F)c2)cc1F")
"25 to 50%"
>>> measurement("CCOc1ccc(CN(C)CC(=O)Nc2ccc3c(c2)c2ccccc2n3CC)cc1OC")
"25 to 50%"
